# Test system: Grans
# Experiment: Peptidases to distinguish leukemia from non-leukemia, granulocytes
# Format: cell-based, human
# Design: unit not given here
# Condition parameters: J5 11/27/91 AML
Decision: enzyme activity compared against 3; not below it gives YES, below it gives NO.

See these solved cases before continuing.
>>> category_label("NC(=O)CC[C@H](N)C(=O)N[C@@H](CO)C(=O)Nc1ccc2c(c1)Oc1cc(NC(=O)[C@H](CO)NC(=O)[C@@H](N)CCC(N)=O)ccc1C21OC(=O)c2ccccc21 [QS, (H--L--Gln--Ser)2 Rho 110-2TFA]")
"NO"
>>> category_label("CC(C)C[C@H](N)C(=O)NCC(=O)Nc1ccc2c(c1)Oc1cc(NC(=O)CNC(=O)[C@@H](N)CC(C)C)ccc1C21OC(=O)c2ccccc21")
"NO"

Q: State whether the measured enzyme activity reaches 3, counting equality as reaching it, for CC(C)[C@H](N)C(=O)N[C@@H](CO)C(=O)Nc1ccc2c(c1)Oc1cc(NC(=O)[C@H](CO)NC(=O)[C@@H](N)C(C)C)ccc1C21OC(=O)c2ccccc21 [VS, (H--L--Val--Ser)2 Rho 110-2TFA]
Ans: NO

Q: State whether the measured enzyme activity reaches 3, counting equality as reaching it, for NCC(=O)N1CCC[C@H]1C(=O)Nc1ccc2c(c1)Oc1cc(NC(=O)[C@@H]3CCCN3C(=O)CN)ccc1C21OC(=O)c2ccccc21
Ans: YES

Q: State whether the measured enzyme activity reaches 3, counting equality as reaching it, for C[C@@H](O)[C@H](N)C(=O)N1CCC[C@H]1C(=O)Nc1ccc2c(c1)Oc1cc(NC(=O)[C@@H]3CCCN3C(=O)[C@@H](N)[C@@H](C)O)ccc1C21OC(=O)c2ccccc21
Ans: NO
